Ref: patent EP2790511B1

# Measured on: hROMK (hKir1.1) (Homo sapiens)
# Construct: expressed in transfected cells
# Sequence (P48048 whole entry): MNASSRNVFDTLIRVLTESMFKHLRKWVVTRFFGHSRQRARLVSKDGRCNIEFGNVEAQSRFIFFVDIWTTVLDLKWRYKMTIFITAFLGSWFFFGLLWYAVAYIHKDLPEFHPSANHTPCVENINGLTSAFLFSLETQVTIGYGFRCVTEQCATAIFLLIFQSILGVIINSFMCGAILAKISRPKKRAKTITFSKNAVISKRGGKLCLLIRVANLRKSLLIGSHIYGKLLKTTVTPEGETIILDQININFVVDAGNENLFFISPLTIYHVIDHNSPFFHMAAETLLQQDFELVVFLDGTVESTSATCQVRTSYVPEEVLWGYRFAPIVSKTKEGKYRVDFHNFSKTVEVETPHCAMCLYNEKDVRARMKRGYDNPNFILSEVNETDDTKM
# Protocol notes: Thallium Flux Assay
# Assay type: cell-based
# Setup conditions: Thallium Flux IC50
pIC50: −log10 of the molar value.
Measured pIC50, listed per entry.
Measurement name: pIC50

* N#Cc1c(F)ccc([C@H]2CN3CCN(C(=O)Cc4cnc(-n5cnnn5)nc4)C[C@H]3CO2)c1Cl | 7.22
* O=C(Cc1ccc(-n2cnnn2)nc1)N1CCN2C[C@@H](c3ccc4nonc4c3)OC[C@@H]2C1 | 6.74
* Cc1cc(-n2cnnn2)cnc1CC(=O)N1CCN2C[C@@H](c3ccc(F)c(C#N)c3C)OC[C@@H]2C1 | 6.64
* O=C(Cc1ccc(-n2cnnn2)nc1)N1CCN2C[C@H](c3ccc4nonc4c3)OC[C@@H]2C1 | 6.23
* Cc1c(C#N)cccc1[C@@H]1CN2CCN(C(=O)Cc3ccc(-n4cnnn4)nc3)C[C@@H]2CO1 | 6.66
* Cc1cc(-n2cnnn2)ncc1CC(=O)N1CCN2C[C@H](c3ccc4c(c3C)COC4=O)OC[C@@H]2C1 | 6.68
* Cc1c([C@H]2CN3CCN(C(=O)Cc4cnc(-n5cnnn5)nc4)C[C@H]3CCO2)ccc(F)c1C#N (single isomer, unassigned) | 6.66
* Cc1c([C@@H]2CN3CCN(C(=O)Cc4ccc(-n5cnnn5)cn4)C[C@H]3CO2)csc1C#N | 6.57
* Cc1c([C@H]2CN3CCN(C(=O)Cc4cnc(-n5cnnn5)cn4)C[C@H]3CO2)ccc2c1COC2=O | 6.80
* N#Cc1c(F)ccc([C@H]2CN3CCN(C(=O)Cc4ccc(-n5cnnn5)cn4)C[C@H]3CO2)c1Cl | 6.96
* Cc1c([C@H]2CN3CCN(C(=O)Cc4cnc(-n5cnnn5)nc4)C[C@@H]3CO2)ccc(F)c1C#N | 6.74
* Cc1nc(CC(=O)N2CCN3C[C@H](c4ccc(F)c(C#N)c4C)OC[C@@H]3C2)ccc1-n1cnnn1 | 7.05
* Cc1c([C@@H]2CN3CCN(C(=O)Cc4ccc(-n5cnnn5)nn4)C[C@@H]3CO2)ccc(F)c1C#N | 6.68
* N#Cc1c(F)ccc([C@H]2CN3CCN(C(=O)Cc4ccc(-n5cnnn5)nc4)C[C@H]3CO2)c1C1CC1 | 6.42
* Cc1cc(-n2cnnn2)ncc1CC(=O)N1CCN2C[C@H](c3ccc(F)c(C#N)c3C)OC[C@@H]2C1 | 7.05
* N#Cc1c(F)ccc([C@@H]2CN3CCN(C(=O)Cc4ccc(-n5cnnn5)nc4)C[C@H]3CO2)c1F | 7.05
* Cc1c([C@H]2CN3CCN(C(=O)Cc4ccc(-n5cnnn5)cn4)C[C@H]3CO2)ccc2c1COC2=O | 6.96
* Cc1nc(-n2cnnn2)ncc1CC(=O)N1CCN2C[C@@H](c3ccc(F)c(C#N)c3C)OC[C@@H]2C1 | 6.92
* Cc1c([C@H]2CN3CCN(C(=O)Cc4cnc(-n5cnnn5)cn4)C[C@H]3CO2)ccc(F)c1C#N | 6.82
* Cc1c([C@@H]2CN3CCN(C(=O)Cc4ccc(-n5cnnn5)nc4)C[C@H]3CO2)ccc2c1COC2=O | 6.80
* Cc1nc(-n2cnnn2)ncc1CC(=O)N1CCN2C[C@H](c3ccc(F)c(C#N)c3C)OC[C@@H]2C1 | 6.92
* Cc1c([C@@H]2CN3CCN(C(=O)Cc4ccc(-n5cnnn5)cn4)C[C@@H]3CO2)ccc(F)c1C#N | 7.10
* Cc1c([C@@H]2CN3CCN(C(=O)Cc4cnc(-n5cnnn5)nc4)C[C@H]3CO2)ccc(F)c1C#N | 7.10
* Cc1c([C@@H]2CN3CCN(C(=O)Cc4cnc(-n5cnnn5)nc4)C[C@H]3CN2)ccc(F)c1C#N | 7.00
* Cc1c([C@@H]2CN3CCN(C(=O)Cc4ccc(-n5cnnn5)nc4)C[C@H]3CO2)ccc(F)c1C#N | 7.30
* Cc1c([C@@H]2CN3CCN(C(=O)Cc4ncc(-n5cnnn5)cc4Cl)C[C@@H]3CO2)ccc(F)c1C#N | 6.70
* Cc1c([C@H]2CN3CCN(C(=O)Cc4ccc(-n5cnnn5)nc4)C[C@H]3CN2)ccc(F)c1C#N | 7.15
